Measured melting point of individual entries

Here is how some compounds turned out for melting point.
{"columns": ["Compound structure", "melting point"],
 "data": [
  ["CCOC(=O)Cc1ccc(-c2nc(COc3ccc(COc4nn(-c5ccccc5)cc4/C=C/c4nc(CC)sc4C)cc3OC)c(C)o2)cc1", "127 to 128 °C"],
  ["COc1cc(COc2nn(-c3ccccc3)cc2C(N)=O)ccc1OCc1nc(-c2ccccc2)oc1C", "190 to 191 °C"],
  ["CCOP(=O)(/C=C/c1cn(-c2ccccc2)nc1OCc1ccc(OCc2nc(-c3cccc(O)c3)oc2C)c(OC)c1)OCC", "127 to 128 °C"]
]}

Turning now to a further compound:
Measured melting point, CCOC(=O)/C=C/c1cn(-c2ccccc2)nc1OCc1ccc(OCc2nc(-c3ccco3)oc2C)c(OC)c1 : 177 to 178 °C

src = patent US7368578B2
